# System Name: Beta-secretase 1 (Homo sapiens, UniProt P56817)
# Sequence (P56817 whole entry): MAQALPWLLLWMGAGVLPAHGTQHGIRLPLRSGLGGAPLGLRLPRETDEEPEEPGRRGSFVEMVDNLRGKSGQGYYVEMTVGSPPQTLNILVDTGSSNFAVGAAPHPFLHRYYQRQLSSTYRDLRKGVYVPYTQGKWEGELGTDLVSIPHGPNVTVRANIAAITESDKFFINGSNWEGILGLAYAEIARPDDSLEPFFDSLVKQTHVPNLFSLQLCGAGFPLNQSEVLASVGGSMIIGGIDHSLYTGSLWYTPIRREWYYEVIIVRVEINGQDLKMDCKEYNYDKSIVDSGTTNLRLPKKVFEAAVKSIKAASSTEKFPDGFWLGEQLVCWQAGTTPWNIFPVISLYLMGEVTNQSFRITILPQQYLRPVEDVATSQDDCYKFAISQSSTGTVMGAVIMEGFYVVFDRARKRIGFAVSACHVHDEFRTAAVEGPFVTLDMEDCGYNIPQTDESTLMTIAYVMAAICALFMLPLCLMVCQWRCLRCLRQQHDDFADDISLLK
# Run Description: In Vitro Enzymatic FRET (Fluorescence Resonance Energy Transfer) Assays: The cDNAs for both human recombinant BACE1 and 2 with C-terminal 6-His Tags were cloned into transient protein expression vectors, which were subsequently transfected into mammalian cell lines. These recombinant proteins were further purified using Ni-NTA affinity chromatography (Qiagen). The assay buffer used in these screens was 0.05 M acetate, pH 4.5, 8% DMSO final, 100 μM genapol (which is a nonionic detergent, below its Critical Micelle Concentration). The β-secretase enzyme (0.02 nM for BACE1 and 0.64 nM for BACE2), which was pre-incubated for one hour with the test compound, typically in about 1 uL of DMSO according to a serial dilution, was added thereto. The assay was effectively started by the addition of FRET substrate (50 nM) and the combination was incubated for one hour. The FRET assay was terminated by the addition of tris buffer, which raised the pH to neutrality, and the fluorescence was determined. The FRET substrate was a peptide with commercially available fluorophore and quencher, on opposite sides of the BACE cleavage site. The specific FRET substrate used in this assay was made by Amgen in-house. Commercially available FRET substrates, for example, the FRET substrate offered with the BACE1 FRET Assay Kit sold by ThermoFisher Scientific (Catalog Number P2985), may be used in this assay with the appropriate modifications, which are within the purview of the ability of a person with ordinary skill in the art. Proteolytic cleavage of the FRET substrate released quenching of fluorescence (excitation 488 nm and emission 590 nm).
Readout Type: pIC50
# pIC50: negative log10 of molar concentration; output just the value

Exam item: Answer with the recorded pIC50 of COC[C@]12CC1[C@@](C)(c1cc(C#Cc3ncc(Cl)cc3C)ccc1F)N=C(N)S2 (stereo partly specified) only.
Marked response: 6.89

* * *

# System Name: Beta-secretase 2 (Homo sapiens, UniProt Q9Y5Z0)
# Sequence (Q9Y5Z0 whole entry): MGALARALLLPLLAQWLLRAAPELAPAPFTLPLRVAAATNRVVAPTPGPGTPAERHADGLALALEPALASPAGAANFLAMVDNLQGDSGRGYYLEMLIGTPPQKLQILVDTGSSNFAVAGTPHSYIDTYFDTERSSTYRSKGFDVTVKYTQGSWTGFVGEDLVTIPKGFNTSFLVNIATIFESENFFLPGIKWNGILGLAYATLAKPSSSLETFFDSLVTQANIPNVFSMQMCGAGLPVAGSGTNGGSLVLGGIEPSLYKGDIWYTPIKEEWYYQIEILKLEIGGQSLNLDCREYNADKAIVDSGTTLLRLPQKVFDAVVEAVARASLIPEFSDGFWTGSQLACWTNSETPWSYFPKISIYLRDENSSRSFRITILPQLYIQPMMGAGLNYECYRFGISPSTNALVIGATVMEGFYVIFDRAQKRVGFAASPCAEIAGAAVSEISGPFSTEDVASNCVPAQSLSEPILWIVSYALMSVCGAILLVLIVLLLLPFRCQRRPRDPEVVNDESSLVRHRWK
# Run Description: These recombinant proteins were further purified using Ni-NTA affinity chromatography (Qiagen).
Readout Type: IC50 (nM)
Number in nM, nothing else.

Exam item: Answer with the recorded IC50 of COC[C@]12CC1[C@@](C)(c1cc(C#Cc3ncc(Cl)cc3C)ccc1F)N=C(N)S2 (stereo partly specified) only.
Marked response: 613
